- test-target: glutathione-S-transferase (GST) tagged LXRbeta LBD (ligand binding domain) (Homo sapiens)
- Construct: purchased Invitrogen pv4658.pps
- Sequence (P55055 222-460 limits assumed): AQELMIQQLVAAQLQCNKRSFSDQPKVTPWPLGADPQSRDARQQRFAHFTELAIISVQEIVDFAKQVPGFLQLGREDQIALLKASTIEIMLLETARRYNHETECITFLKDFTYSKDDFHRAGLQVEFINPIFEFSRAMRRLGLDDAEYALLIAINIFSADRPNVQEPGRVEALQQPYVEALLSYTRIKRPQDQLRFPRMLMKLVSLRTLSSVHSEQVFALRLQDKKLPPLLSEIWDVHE
- experiment-description: LanthaScreen TR-FRET Liver X Receptor Coactivator Assay, co-activator recruitment to LXRbeta LBD
- Format: biochemical
- condition-notes: potency (Inflection Point, IP), co-activator recruitment to LXRbeta LBD, in relation to T0901317; read-out: LXR beta IP
pEC50: −log10 of the molar value.
parameter: pEC50

Please review the entries below; each comes with its answer.
molecule=CN(C)C(=O)c1ccc(N2CCC(CC3CCN(C(=O)[C@](O)(c4cccc(CC#N)c4)C(F)(F)F)CC3)CC2)cc1Cl assay_value=7.80
molecule=COc1ccccc1C1(C(=O)N2CCC(CC3CCN(c4ccc(C(=O)N(C)C)c(Cl)n4)CC3)CC2)CCC1 assay_value=7.80
molecule=CN(C)C(=O)c1ccc(N2CCC(CC3CCN(C(=O)C4(c5ccccc5F)CCCC4)CC3)CC2)nc1Cl assay_value=7.32

a. CNC(=O)c1ccc(N2CCC(CC3CCN(C(=O)[C@](O)(c4cccc(OC(C)C)c4)C(F)(F)F)CC3)CC2)nc1Cl
b. CN(C)C(=O)c1ccc(N2CCC(CC3CCN(C(=O)[C@](N)(c4ccccc4)C(F)(F)F)CC3)CC2)nc1Cl
c. CN(C)C(=O)c1ccc(N2CCC(CC3CCN(C(=O)OC(C)(C)C)CC3)CC2)cc1Cl
Task for the reader: rank each entry by its pEC50, from the minimum upward. # the answer lists labels in the order requested
c, b, a
